pKi data for Estrogen receptor beta (Homo sapiens) follow.
# log scale: pKi equals minus log10 of the concentration in mol/L

[Q] Which measured pKi value corresponds to Cc1ccc(OS(=O)(=O)C2CC3OC2C(c2ccc(NC(=O)CCCCCCC(=O)O)cc2)=C3c2ccc(O)cc2)cc1 (racemic) ?
[A] 7.06

[Q] Which measured pKi value corresponds to O=C(O)CCCCCCC(=O)Nc1ccc(C2=C(c3ccc(O)cc3)C3CC(S(=O)(=O)Oc4ccc(Br)cc4)C2O3)cc1 (racemic) ?
[A] 7.22

[Q] Which measured pKi value corresponds to COC(=O)CCCCCCC(=O)Nc1ccc(OS(=O)(=O)C2CC3OC2C(c2ccc(O)cc2)=C3c2ccc(O)cc2)cc1 (centres undefined) ?
[A] 6.12
